Would you mind telling me the reported Population Normal (%) of each entry?
System: Fibroblast
Assay: Multiplex assay against human fibroblast
Format: toxicity, cell-based
Conditions: 12 h, 10 µM, compound concentration 10 uM, replicate 1
Answer format: numeric, % implied, no suffix.

Enquiry: // map `CNC(=O)Nc1ccc2c(c1)[C@@]1(CC2)OC(=O)N(CC(=O)N(Cc2ccc(F)cc2)[C@@H](C)C(F)(F)F)C1=O` to recorded Population Normal (%) (system: Fibroblast)
Return: 85

Enquiry: Same lookup for `Cl.O=C(O)c1cc(-c2ccc(C3CCNCC3)cc2)c2ccc(-c3ccc(C(F)(F)F)cc3)cc2c1` , please.
Return: 81

Enquiry: Same lookup for `CNC(=O)c1ccc(Nc2ncc(C(F)(F)F)c(NCc3nccnc3N(C)S(C)(=O)=O)n2)cc1` , please.
Return: 91

Enquiry: Same lookup for `CN1CCN(Cc2ccc(Nc3ncc(Cl)c(Nc4ccccc4S(=O)(=O)N(C)C)n3)cc2)CC1` , please.
Return: 85

Enquiry: Same lookup for `C=CC(=O)Nc1cccc(Oc2nc(Nc3ccc(N4CCN(C)CC4)cc3OC)ncc2Cl)c1` , please.
Return: 84

Enquiry: Same lookup for CCC1=C[C@@H]2C[N@](C1)Cc1c([nH]c3ccccc13)[C@@](C(=O)OC)(c1cc3c(cc1OC)N(C)[C@H]1[C@@](O)(C(=O)OC)[C@H](OC(C)=O)[C@]4(CC)C=CCN5CC[C@]31[C@@H]54)C2.O=C(O)C(O)C(O)C(=O)O.O=C(O)C(O)C(O)C(=O)O [VINORELBINE TARTRATE] , please.
Return: 81

###

Tested on: HEK-293T
Test: Multiplex assay against HEK293T
Assay type: toxicity, cell-based
Details: human, 48 h, 1 µM, compound concentration 1 uM, replicate 2
ENDPOINT LABEL: Population Mitochondria Different-Phenotype (%)
Answer format: numeric, % implied, no suffix.

Enquiry: What value of Population Mitochondria Different-Phenotype (%) has been reported for the following molecule? Cc1ccc2c(c1)c1c(n2CCc2ccc(C)nc2)CCN(C)C1 [LATREPIRDINE]
Return: 23

Enquiry: Same lookup for `O=c1cc(N2CCOCC2)oc2c(-c3cccc4c3sc3ccccc34)cccc12` , please.
Return: 6

Enquiry: Same lookup for Cc1cccc(CN2CCN(C(c3ccccc3)c3ccc(Cl)cc3)CC2)c1.Cl.Cl (configuration not stated) , please.
Return: 7

Enquiry: Same lookup for CC1=C(C(=O)Nc2cc3cn[nH]c3cc2F)C(c2ccc(C(F)(F)F)cc2)CC(=O)N1 (configuration not stated) , please.
Return: 3

Enquiry: Same lookup for `CC(C)(C)NC[C@H](O)COc1nsnc1N1CCOCC1` , please.
Return: 3

Enquiry: Same lookup for CCc1nn(CCCN2CCN(c3cccc(Cl)c3)CC2)c(=O)n1CCOc1ccccc1.Cl [NEFAZODONE HYDROCHLORIDE] , please.
Return: 27

Enquiry: Same lookup for `Cc1c[nH]c2nccc(Oc3c(F)cc(Nc4cc(Cl)nc(N)n4)cc3F)c12` , please.
Return: 4

###

Would you mind telling me the reported Population Fragmented Nuclei (%) of each entry?
Tested on: Fibroblast
Assay: Multiplex assay against human fibroblast
Assay type: toxicity, cell-based
Settings: 12 h, 10 µM, compound concentration 10 uM, replicate 2
Answer format: numeric, % implied, no suffix.

Enquiry: What value of Population Fragmented Nuclei (%) has been reported for the following molecule? `Cc1c[nH]c2nccc(Oc3c(F)cc(Nc4cc(Cl)nc(N)n4)cc3F)c12`
Return: 17

Enquiry: Same lookup for `CCCSc1nc(N[C@@H]2C[C@H]2c2ccc(F)c(F)c2)c2nnn([C@@H]3C[C@H](OCCO)[C@@H](O)[C@H]3O)c2n1` , please.
Return: 7

Enquiry: Same lookup for `CNC(=O)Nc1ccc(-c2nc(N3CC4CCC(C3)O4)c3cnn(C4CCC5(CC4)OCCO5)c3n2)cc1` , please.
Return: 13

Enquiry: Same lookup for CC1=C(C(=O)Nc2cc3cn[nH]c3cc2F)C(c2ccc(C(F)(F)F)cc2)CC(=O)N1 (stereo not given) , please.
Return: 21

Enquiry: Same lookup for `Cl.O=C(O)c1cc(-c2ccc(C3CCNCC3)cc2)c2ccc(-c3ccc(C(F)(F)F)cc3)cc2c1` , please.
Return: 14
